- Study Target: IRAK4 (Homo sapiens)
- Sequence (Q9NWZ3 1-460): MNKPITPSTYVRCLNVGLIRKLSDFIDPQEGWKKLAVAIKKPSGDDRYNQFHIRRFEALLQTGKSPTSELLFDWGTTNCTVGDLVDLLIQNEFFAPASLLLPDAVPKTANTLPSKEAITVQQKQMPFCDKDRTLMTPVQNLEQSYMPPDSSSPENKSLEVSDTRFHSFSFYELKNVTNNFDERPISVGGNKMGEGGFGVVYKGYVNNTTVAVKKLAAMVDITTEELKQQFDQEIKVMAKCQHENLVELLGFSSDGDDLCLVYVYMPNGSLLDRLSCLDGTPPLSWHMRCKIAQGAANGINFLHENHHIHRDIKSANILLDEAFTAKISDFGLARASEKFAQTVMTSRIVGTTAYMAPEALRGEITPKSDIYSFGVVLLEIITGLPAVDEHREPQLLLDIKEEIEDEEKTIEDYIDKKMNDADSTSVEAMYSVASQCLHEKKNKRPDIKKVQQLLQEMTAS
- Protocol Notes: WB detection of proteolysis (Western Blot, THP-1 cells)
- Assay type: cell-based
- Run Parameters: Western Blot, THP-1 cells, 24 h; read-out: DC50
Where a name gives a salt, the structure may show the parent alone.
Could you please report measured DC50 for the items listed next?

Would you mind giving DC50 for every compound in the list below?
1. Cn1c(=O)n(C2CCC(=O)NC2=O)c2cccc(N3CCN(C[C@H]4CC[C@H](n5cc(-n6cc(-c7cnn8ccc(N9CCNCC9)nc78)nn6)c(C(F)F)n5)CC4)CC3)c21 (stereo partly drawn) [Example 132, dihydrochloride]
2. Cn1c(=O)n(C2CCC(=O)NC2=O)c2cccc(N[C@H]3CC[C@@H](N(C)C[C@H]4CC[C@H](n5cc(-n6cc(-c7cnn8ccc(N9CCOCC9)nc78)nn6)c(C(F)F)n5)CC4)CC3)c21 (stereo partly drawn)
3. Cn1c(=O)n(C2CCC(=O)NC2=O)c2cccc(N3CCC4(CCN(C[C@H]5CC[C@H](n6cc(-n7cc(-c8cnn9ccc(N%10CCC[C@H](N)C%10)nc89)nn7)c(C(F)F)n6)CC5)C4)CC3)c21 (stereo partly drawn)

1. < 10 nM
2. < 10 nM
3. 10 to 30 nM
